# Tested on: UO-31 renal
# test details: NCI tumour cell line growth inhibition, 48 h
assay endpoint: TGI

Below, 4 compounds whose answers are already recorded.
- compound: "NS(=O)(=O)c1ccc(N2N=C3c4ccccc4CC3C2c2ccc(Cl)cc2)cc1 (stereo not given)"
  TGI: "23.8 µM"
- compound: "CCOP(=O)(OCC)/C(C#N)=C/c1cccn1CC(C)C"
  TGI: "> 100 µM"
- compound: "COC1=CC(c2ccc[nH]2)=N/C1=C\\c1[nH]c(C)c(C(=O)CCCCC(=O)Nc2ccccc2)c1C"
  TGI: "3.12 µM"
- compound: "Cc1ccc(S(=O)(=O)OC2C(C3COC(C)(C)O3)OC3OC(C)(C)OC32)cc1 (stereo not given)"
  TGI: "> 100 µM"

Now for a further compound.
Exercise: System UO-31 renal. Read-out TGI. Item COc1ccc(NC(=O)c2sc3nc(C)c(C(O)c4ccccc4)cc3c2N)cc1 (stereo not given) . Report value.
Solution: > 100 µM

---

# Test system: CCRF-CEM leukemia
# test details: NCI tumour cell line growth inhibition, 48 h
assay endpoint: TGI

Below, 4 molecules whose answers are already recorded.
- molecule: "NS(=O)(=O)c1ccc(N2N=C3c4ccccc4CC3C2c2ccc(Cl)cc2)cc1 (stereo not given)"
  assay endpoint: "TGI"
  measurement: "42.4 µM"
- molecule: "Cc1n[nH]c(=O)n1/N=C/c1c[nH]c2ccccc12"
  assay endpoint: "TGI"
  measurement: "> 100 µM"
- molecule: "COc1ccc(/C(C)=N/OC(=O)c2c(-c3ccccc3Cl)noc2C)cc1CN1CCOCC1"
  assay endpoint: "TGI"
  measurement: "> 100 µM"
- molecule: "O=C(Nc1c(O)[nH]c(=S)[nH]c1=O)c1ccc2ccccc2n1"
  assay endpoint: "TGI"
  measurement: "> 100 µM"

Exercise: Give TGI for the following molecule: "CCOC(=O)c1cn(Cc2ccccc2)c(=O)n1Cc1ccccc1"
Solution: > 100 µM

---

# Test system: OVCAR-5 ovarian
# test details: NCI tumour cell line growth inhibition, 48 h
assay endpoint: TGI (µM)
Write the number in µM without appending the unit.

- test smiles: "COc1cc(/C=C2\\COc3ccc(O)c(O)c3C2=O)cc(OC)c1"
  TGI / µM: 11.5

Now for a further compound.
Exercise: Give TGI for the following compound: "CC1=C(C(=O)NCc2ccccc2)C(c2ccccc2[N+](=O)[O-])C(C(=O)NCc2ccccc2)=C(C)N1"
Solution: 36.6

---

Each entry below carries its recorded TGI.
# Test system: M14 melanoma
# test details: NCI tumour cell line growth inhibition, 48 h

Below, 4 molecules whose answers are already recorded.
- molecule: "CC(CO)C1=CC(C#CCOCc2ccccc2)N(C(=O)Oc2ccccc2)c2ccccc21 (stereo unspecified)"
  measurement: "> 100 µM"
- molecule: "COc1ccc2c(c1)CCC1C2CC[C@]2(C)/C(=N/OC(=O)Cc3ccccc3)CCC12 (stereo partly specified)"
  measurement: "32.9 µM"
- molecule: "Cc1ccc(Cl)c(NC(=O)C(=O)C(C(=O)c2ccncc2)C2OC(=O)c3ccccc32)c1 (stereo unspecified)"
  measurement: "> 100 µM"
- molecule: "O=C(CCCl)NNC1=NCCN1"
  measurement: "> 100 µM"

Exercise: Give TGI for the following molecule: O=C(NO)C12C3C4C1C1C2C3C41C(=O)NO (stereo unspecified)
Solution: > 100 µM

Exercise: Give TGI for the following molecule: "O=C(Cc1ccc(Cl)c(Cl)c1)N(CCc1ccc(Cl)c(Cl)c1)CCN1CCCC1"
Solution: 3.56 µM
